Entries and their EC50
Molecular target: T1, human SIRPα1 expressed on cells (human, UniProt P78324 31-504)
T1 construct: whole, on cells; also called huSIRPα1; ExpiCHO-S (huSIRPα1)
T1 sequence (P78324 other isoform, or with tags, fused parts or gaps limits assumed): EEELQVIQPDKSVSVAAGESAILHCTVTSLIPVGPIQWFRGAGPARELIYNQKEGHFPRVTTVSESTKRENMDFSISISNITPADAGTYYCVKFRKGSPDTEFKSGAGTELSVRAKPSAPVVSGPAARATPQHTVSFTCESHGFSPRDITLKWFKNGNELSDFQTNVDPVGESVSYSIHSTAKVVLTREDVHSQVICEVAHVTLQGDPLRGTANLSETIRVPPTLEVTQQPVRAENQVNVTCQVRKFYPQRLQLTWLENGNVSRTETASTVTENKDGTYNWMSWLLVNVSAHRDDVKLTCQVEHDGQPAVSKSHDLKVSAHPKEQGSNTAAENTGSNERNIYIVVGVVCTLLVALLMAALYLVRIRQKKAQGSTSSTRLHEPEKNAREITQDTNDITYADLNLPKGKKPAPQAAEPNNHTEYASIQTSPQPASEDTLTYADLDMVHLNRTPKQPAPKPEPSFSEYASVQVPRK
Test: flow cytometry, ExpiCHO-S cells
Express the result in µg/mL but write the number alone.

1. AB3-LALA (AB3 chicken-human chimeric IgG1-kappa, LALA) (antibody, V domains shown) VH: AVTLDESGGGLQTPGGALSLVCKASGFIFSDYGMNWVRQAPGKGLEFVAQITSGSRTYYGAAVKGRATISRDNRQSTVKLQLNNLRAEDTGIYFCARDFGSGVGSIDAWGNGTEVIVSS VL: ALTQPASVSANLGGTVKITCSGSRGRYGWYQQRSPGSAPVTVIYRDNQRPSNIPSRFSSSTSGSTSTLTITGVQADDESVYFCGSYDGSIDIFGAGTTLTVLR; 0.09
2. AB119-LALA (AB119 human IgG1-kappa, LALA) (antibody, V domains shown) VH: VQLLESGGGVVQPGGSLRLSCAASGFSFSNFAMTWVRQAPGEGLEWVSTIGSGDTYYADSVKGRFTISRDNSKNTLYLQMNSLRAEDTAVYYCAKDSTVSWSGDFFDYWGLGTLVTVSS VL: EIVLTQSPATLSVSPGERATFSCRASQNVKNDLAWYQQRPGQAPRLLIYAARIRETGIPERFSGSGSGTEFTLTITSLQSEDFAVYYCQQYYDWPPFTFGGGTKVEIKR; 0.1
3. humanized anti-SIRPα antibody 6 (antibody, human IgG1, kappa, L234A L235A, V domains shown, human IgG1 LALA, kappa; also called mAb 6) VH: RQLVESGGGLVQPGGSLRLSCTASGFSLSSHGISWVRQAPGKGLEYIGTIGTGVITYFASWAKGRFTGSKTSSTAYMELSSLRSEDTAVYFCARGSAWNDPFDPWGQGTLVTVSS VL: DIVMTQSPSSLSASVGDRVTITCQASQSVYGNNDLAWYQQKPGQAPKLLIYLASTLATGVPSRFSGSGSGTDFTLTISSLQPEDFATYYCLGGGDDEADNTFGQGTKVEIKR; 0.06
4. 7H9-LALA (7H9 mouse-human chimeric IgG1-kappa, LALA) (antibody, V domains shown) VH: DVQLQESGPGLVKPSQSLSLTCTVTGFSISRGYDWHWIRHFPGNILEWMGYITYSGISNYNPSLKSRISITHDTSKNHFFLRLNSVTAEDTATYYCARGGGAWFTYWGQGTLVTVSA VL: DIVMTQSPATLSVTPGDRVSLSCRASQSISDSLHWYHQKSHESPRLLIKYASQSISGIPSRFSAGGSGSDFTLTINSVEPEDVGVYYCQNGHSLPWTFGGGTKLEIKR; 0.49

Could you now consider this next binder?
Reported EC50, binder 1H9 humanized IgG1-kappa, HC-N297A (antibody, V domains shown) VH: QVQLVQSGAEVKKPGASVKVSCKASGYTFTSYWITWVKQAPGQGLEWIGDIYPGSGSTNHIEKFKSKATLTVDTSISTAYMELSRLRSDDTAVYYCATGYGSSYGYFDYWGQGTLVTVSS VL: DIQMTQSPSSLSASVGDRVTITCRASENIYSYLAWYQQKPGKAPKLLIYTAKTLAEGVPSRFSGSGSGTDFTLTISSLQPEDFATYYCQHQYGPPFTFGQGTKLEIKR : ____
0.04
